tested on: K4 kissing-loop RNA reporter; experiment: apparent KD of K4 kissing-loop reporter; higher = weaker reporter binding; settings: Eterna round: R107; input ligand: tryptophan 2.4 mM
Quick reference for apparent KD of K4 kissing-loop reporter among some sequences
Record the value in nM, omitting the unit from your answer.

| Sequence string | Endpoint unit | apparent KD of K4 kissing-loop reporter |
| --- | --- | --- |
| GUCUCGAGUGAUGUUCGGGUCGAUUGGGAAGGAGCGCCCGGAAGGGCAGGUAGGUCGCCCGGACCGCGCGGGCAACCGCGCGGCC [#2 Same State - Arginine A Attempt #11 (HarryS)] | nM | 163 |

Give recorded apparent KD of K4 kissing-loop reporter with K4 kissing-loop RNA reporter for the following sequence: ACGAAGGAUGGAAGGAGCGCUCGUCAGUCCUGCGAGUGAUGUUCGUGGGUAAAUAUUCGCGAGCAGGUAGGUCGCCAUCUUGAAC [Veticeen]
134

Which measured apparent KD of K4 kissing-loop reporter belongs to UUUGUAUCGGGAAGGAGCGUGAAUGAUAAUGAAUAUAGUGAUGUUAUAUAUAAGAACGAAUCACAGGUAGGUCGCCCGGAUGACU [SSArgB.O] , tested on K4 kissing-loop RNA reporter?;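 further: bound reporter read as fluorescence of individual clusters on recovered sequencing chips by microscopy, with normalized cluster intensities fitted with a binding model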
364
